test-name: Influence of meal on pharmacokinetics, single 450 mg dose
measurement-context: male, human, in vivo, oral, After Meal, healthy adult males
quantity-measured: Cmax (ng/mL)

INSERT INTO assay_data (item_smiles, measure_unit, value_measured) VALUES
  ('O=C(O)CNC(=O)c1ncc(-c2cccc(Cl)c2)cc1O', 'ng/mL', 46300);

----------
test-name: clinical
Assay type: in vivo, human
measurement-context: both sexes, human, in vivo, 40 mg
quantity-measured: AUC(0-inf) (ng·h/mL)

INSERT INTO results (compound, quantity_measured, value_measured) VALUES
  ('CCC(C)(C)C(=O)O[C@H]1C[C@@H](C)C=C2C=C[C@H](C)[C@H](CC[C@@H](O)C[C@@H](O)CC(=O)O)[C@H]21 [β-hydroxysimvastatin acid]', 'AUC(0-inf)', 20200);

Value source: patent US20230263786A1
